targetDesc: Nuclear receptor subfamily 1 group I member 2 (Homo sapiens)
Sequence (O75469 whole entry): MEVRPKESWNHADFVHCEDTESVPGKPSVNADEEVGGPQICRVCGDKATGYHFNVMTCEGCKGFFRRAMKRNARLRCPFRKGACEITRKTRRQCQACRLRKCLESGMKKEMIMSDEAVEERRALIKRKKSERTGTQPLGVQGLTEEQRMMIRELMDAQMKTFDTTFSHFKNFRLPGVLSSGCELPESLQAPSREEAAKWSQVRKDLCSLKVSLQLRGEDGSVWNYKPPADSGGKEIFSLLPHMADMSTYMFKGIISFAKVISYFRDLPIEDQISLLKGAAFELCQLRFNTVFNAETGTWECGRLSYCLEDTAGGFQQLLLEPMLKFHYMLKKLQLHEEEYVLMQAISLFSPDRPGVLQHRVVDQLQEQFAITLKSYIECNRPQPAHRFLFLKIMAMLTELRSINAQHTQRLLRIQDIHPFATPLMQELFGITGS
assay: Induction of human SXR transcriptional activity expressed in human HepG2 cells coexpressing GAL4 at 5 X 10^-6 M after 48 hrs by luciferase reporter gene assay relative to vehicle-treated control
Type: cell-based
conditionContext: hepg2, 48 h, 5 µM
quantityName: Activity

{"columns": ["compound", "quantityName", "result"],
 "data": [
  ["[2H]c1c([2H])c([2H])c2c(c1[2H])C(=O)C(C/C=C/CC/C=C(\\C)CC/C=C(\\C)CCC=C(C)C)=C(C([2H])([2H])[2H])C2=O", "Activity", "Active"],
  ["[2H]c1c([2H])c([2H])c2c(c1[2H])C(=O)C(C/C=C(\\C)CCCC(C)CC/C=C(\\C)CCC=C(C)C)=C(C([2H])([2H])[2H])C2=O (stereo not drawn)", "Activity", "Active"],
  ["[2H]c1c([2H])c([2H])c2c(c1[2H])C(=O)C(C/C=C(\\C)CCCC(C)CCCC(C)CCC=C(C)C)=C(C([2H])([2H])[2H])C2=O (stereo not drawn)", "Activity", "Not Active"],
  ["[2H]c1c([2H])c([2H])c2c(c1[2H])C(=O)C(C/C=C(\\C)CC/C=C/CC/C=C(\\C)CCC=C(C)C)=C(C([2H])([2H])[2H])C2=O", "Activity", "Active"],
  ["[2H]c1c([2H])c([2H])c2c(c1[2H])C(=O)C(CCC(C)CCCC(C)CCCC(C)CCCC(C)C)=C(C([2H])([2H])[2H])C2=O (stereo not drawn)", "Activity", "Not Active"],
  ["[2H]c1c([2H])c([2H])c2c(c1[2H])C(=O)C(C/C=C(\\C)CC/C=C(\\C)CC/C=C/CCC=C(C)C)=C(C([2H])([2H])[2H])C2=O", "Activity", "Active"],
  ["[2H]c1c([2H])c([2H])c2c(c1[2H])C(=O)C(C/C=C(\\C)CC/C=C(\\C)CC/C=C(\\C)CC/C=C/C)=C(C([2H])([2H])[2H])C2=O", "Activity", "Active"]
]}

Read the next record carefully.
Sample [2H]c1c([2H])c([2H])c2c(c1[2H])C(=O)C(C/C=C(\C)CCCC(C)CCCC(C)CCCC(C)C)=C(C([2H])([2H])[2H])C2=O (stereo not drawn) , system: Nuclear receptor subfamily 1 group I member 2 (Homo sapiens). Its Activity is Not Active
